Hello, the source for this data is PubChem BioAssay (NCI), in case you need it.

tested on: M14 melanoma; assay: NCI tumour cell line growth inhibition, 48 h
The entries below come with measured TGI values attached.

INSERT INTO results (compound, reported_value) VALUES
  ('CN(C)c1nc(=NCc2ccco2)ss1', '> 53.8 µM'),
  ('Cc1ccc(S(=O)(=O)NC(=O)NC(CCCCN=C(N)N)C(=O)O)cc1 (configuration not stated)', '> 100 µM'),
  ('Cc1ccnc2nc(N)ccc12', '> 100 µM');

Entry `O=c1c2ccccc2nc(-c2ccccc2)n1NC(=S)Nc1ccc(Cl)cc1` — recorded TGI = > 100 µM

get_value(item= `Nc1cccc(S(=O)(=O)Nc2nnc(S(N)(=O)=O)s2)c1` , readout=TGI) returns > 100 µM

Just so you know, measured TGI for `O=C(O)/C=C\C(=O)Nc1ccccn1` came out at > 100 µM

// field: TGI; key: `COc1cc2ncnc(-n3ncc4cc(NC(=O)Nc5ccc(Cl)c(Cl)c5)ccc43)c2cc1OC` ; value = 3.58 µM

Memo: CC1(C)C(CCO)CC1n1ccc(=O)[nH]c1=O (configuration not stated) , reported TGI: > 100 µM

The reported value for COc1cc(C2C(Cl)C(=O)N2NC(=O)c2ccc(NC(C)=O)cc2)ccc1O (configuration not stated) in terms of TGI is > 100 µM

Given item `CCCn1cnc2c(SCC(=O)O)nc(N)nc21` , the value recorded as its TGI is > 100 µM

The compound identified as `CCc1cccc(C)c1N1C(=O)C(=O)C(c2nc3ccccc3o2)C(=O)C1=O` registered its TGI at > 100 µM

Sample `CN(C(=O)c1ccc2c(c1)sc1c(=O)n(C)c3ccccc3c12)c1ccccc1` ; TGI observed: > 100 µM

###

system: EKVX NSCLC; assay: NCI tumour cell line growth inhibition, 48 h
assay-endpoint: TGI

INSERT INTO assay_data (molecule, assay_endpoint, reported_value) VALUES
  ('CC(C)c1nc(N(C)S(C)(=O)=O)nc(-c2ccc(F)cc2)c1/C=C/[C@@H](O)C[C@@H](O)CC(=O)O', 'TGI', '> 100 µM'),
  ('CN(C)CCNC(=O)c1cccc2cc3cc(O)ccc3nc12', 'TGI', '5.24 µM');

Per the records, this molecule ( CC(C)(C)C(=O)OCC1OC(N=[N+]=[N-])C(OC(=O)C(C)(C)C)C(OC(=O)C(C)(C)C)C1OC(=O)C(C)(C)C (stereo not drawn) ) has TGI equal to > 100 µM

###

tested on: DMS 273 small cell lung; assay: NCI tumour cell line growth inhibition, 48 h
// reported TGI per item

INSERT INTO results (molecule, reported_value) VALUES
  ('Cc1ccc(N(O)C(C)(C)C)cc1', '> 100 µM'),
  ('O=C1C(=O)N(c2ccc(Cl)cc2)C(=O)C(=O)C1c1nc2ccccc2s1', '> 100 µM'),
  ('Cc1cc(C)nc(/C(=N\NC(N)=O)C(=O)Nc2nc3ccc(C)cc3s2)c1', '> 93.5 µM'),
  ('Cc1ccc(Oc2ccccc2N)cc1', '> 100 µM'),
  ('O=NN(CCF)C(=O)NC1CC2CCC1C2 (configuration not stated)', '> 100 µM'),
  ('COc1ccc(OC(C(=O)O)C(C)C)c2c1CCCC2=O (configuration not stated)', '> 100 µM');

Notebook: Cc1cc(NC(=O)C2C3C=CC(O3)C2C(=O)O)no1 (configuration not stated) , TGI read as 34.2 µM

Given item C#CCNC(=O)NCCCCC(NC(=O)OCc1ccccc1)C(=O)OCc1ccccc1 (configuration not stated) , the value recorded as its TGI is > 100 µM

Short answer for C[S+](C)CC1OC(n2cnc3c(N)ncnc32)C(O)C1O (configuration not stated) : TGI was > 225 µM

For record `CN(C)c1nc(=NCc2ccco2)ss1` the listed TGI is > 34.6 µM

Value of TGI reported for the molecule `C#CCNC(=O)ON1C(=O)CCC1=O` is > 100 µM

Per the record, COc1cc(C2C(Cl)C(=O)N2NC(=O)c2ccc(NC(C)=O)cc2)ccc1O (configuration not stated) has TGI of > 100 µM
